# TESTED_SYSTEM: DNA polymerase kappa (Homo sapiens)
# PROCEDURE_DETAILS: qHTS for Inhibitors of Polymerase Kappa
# EXPERIMENTAL_PARAMETERS: purified Pol kappa, fluorescent DNA synthesis assay, 10 min; series mostly up to 60.1 µM
# Text: The processing and repair of DNA interstrand crosslinks (ICL) in eukaryotic cells are extremely complex, potentially involving multiple DNA repair and damage tolerance pathways, including homologous recombination, nucleotide excision repair, translesion synthesis (TLS), and cell cycle checkpoints. To that end, in a collaboration between the Oregon Health & Science University and the NIH Chemical Genomics Center a 1536-well high-throughput screen was developed. […]
The campaign covered roughly 400,000 compounds. About 2,200 (0.55%) were called active. Roughly 1% stayed inconclusive and do not appear here. Calls come from the whole dose curve; as a rule, active = well fitted inhibition curve with a large enough effect; inconclusive = small, poorly fitted or top-dose-only effect, or another doubt; inactive = no such curve, though single readings can be large or run the other way. Shown is part of a subset that was picked to be rich in actives.
The reply should name one outcome from 1.0 for active, 0.0 for inactive

Fill in: this test's call for CN1[C@@H]2CC[C@H]1CC(OC(=O)c1cc(Cl)cc(Cl)c1)C2 (some centres undefined) is ___
0.0

Per the assay record, what outcome was assigned to C[C@@]12CCC3C(CC[C@@H]4CC(O)CC[C@@]34C)C1CCC2O (some centres undefined) ?
0.0

Dear all, I need the recorded test outcome for CC(=O)OC1C2CCC3C1(CC(O)[C@@]1(O)[C@@H](CC(O)C1(C)C)[C@]3(C)O)C[C@@]2(C)O (some centres undefined) , thank you.
0.0

Assay outcome for `CCCCCCCCCCCCN=C(N)N` : what was it?
0.0

What did the test return for `CC[N+](C)(CC)CCC[n+]1c(-c2ccccc2)c2cc(N)ccc2c2ccc(N)cc21` ?
1.0

Would you mind telling me which call this test gave `COc1ccc(N2C(=O)/C(=C/c3ccco3)C(=O)NC2=S)cc1` ?
1.0

Which outcome was assigned to `COc1cccc(N2C(=O)NC(=O)/C(=C\c3ccc([N+](=O)[O-])s3)C2=O)c1` in this test?
1.0

Kindly provide the recorded test outcome for the following molecule: `Cc1cc(/C=C2/C(=O)NC(=O)N(Cc3ccco3)C2=O)c(C)n1-c1ccc(C(=O)O)cc1`
1.0

Lab log entry: `C[C@]12O[C@H](C[C@@]1(O)C(=O)O)n1c3ccccc3c3c4c(c5c6ccccc6n2c5c31)CNC4=O` — outcome as called in the assay?
0.0

I'd appreciate the recorded outcome for COC1CC(OC2CC[C@@]3(C=O)C4CC[C@]5(C)C(C6=CC(=O)OC6)CC[C@@]5(O)C4CC[C@]3(O)C2)OC(C)C1O (some centres undefined) from this test.
0.0

Called result for `C=CCSSCC=C`
0.0

Could you check what this test reported for `ClCCN(CCCl)c1ccc(C=Nc2ccc(/C=C/c3ccnc4ccccc34)cc2)cc1` ?
0.0

Call for entry `C[C@@H]1C[C@@H]2O[C@H]2/C=C\C=C\C(=O)Cc2c(Cl)c(O)cc(O)c2C(=O)O1` :
1.0

Record lookup: outcome of this test for `CC(C)(C)c1ccc(CN2C(=O)CN=C(c3ccccc3)c3ccccc32)cc1` ?
0.0
